biological target: HLA-A*01:01 (Homo sapiens, UniProt P04439, A114D/A174V/A182V/D101N/D185E/E176A/E190D/L180R/Q94H/R68K/S129P/T187R/V100A/V91M/W191G); experiment: In vitro binding of neoantigens to class I MHC (UV peptide exchange, HLA class I ELISA); conditions: 100% = same binding as positive control peptide
experimental.readout: Exchange rate with allele specific Pos peptide, HLA-A*01:01 (%)

1. P76 (YCMAAPMGL) [Peptide P76]; 0.1
2. P73 (DSSGNLLERNSFEVRV; listed as Homo sapiens) [Peptide P73]; 2.1
3. P46 (DDRNTFDIVWWCPMSRLRLALTVPPSTTTTCVTVPAWAA; listed as Homo sapiens) [Peptide P46]; 2.4
4. P98: neoantigen 9 mer fragment used for PBMC stimulation (FIG. 5D) (IVWWCPMSR; listed as Homo sapiens) [Neoantigen P98]; 2.5
5. SLYHREKQLIAMDSAI (listed as Homo sapiens) [Neoantigen P22]; 4.4
6. YEAGMTLGEKFRVGNCKHLKMTRP (listed as Homo sapiens) [Neoantigen P82]; 1.5
7. P58 (MMAEIISVHVPKILSGK; listed as Homo sapiens) [Peptide P58]; 2.5
8. P56 (PKSEVRAKCKFSILNAK; listed as Homo sapiens) [Peptide P56]; 2.6
